system: HepG2 cells; test: Cytotoxicity, MTT assay; assay type: cell-based, human; details: Supplementary Fig. 23 (b); read-out: IC50
measured_property: IC50 (µM)
Enter your answer as a number in µM; do not include the unit.

Requested field: IC50. Item: CC1(C)C(/C=C/C2=C3Oc4cc(OP(=O)(O)O)c(Cl)cc4C=C3CCC2)=[N+](CCCNC(=O)[C@@H](Cc2ccccc2)NC(=O)[C@@H](Cc2ccccc2)NC(=O)CCC(=O)[O][Pt]([NH2])([NH2])([OH])([Cl])[Cl])c2ccccc21 [P-CyPt] 10.3

Same read-out for [NH2][Pt]([NH2])([Cl])[Cl] [CDDP, cisplatin] ? 16.3
